Test: Unbound drug fraction in cell culture medium by rapid equilibrium dialysis
Type: in vitro ADME
Conditions: bovine, bovine serum albumin-containing cell culture medium
readout_kind: fraction unbound

Examples with answers:
CCOc1ccc(NC(C)=O)cc1	0.98
CC(C)NCC(O)COc1cccc2ccccc12 (centres unmarked)	0.98

P = C[C@]12C=CC(=O)C=C1CC[C@@H]1[C@@H]2[C@@H](O)C[C@@]2(C)[C@H]1CC[C@]2(O)C(=O)CO
Q = O=C(O)Cc1ccccc1Nc1c(Cl)cccc1Cl
R = CC(C)Cc1ccc(C(C)C(=O)O)cc1 (centres unmarked)
### Prompt Rank order required: fraction unbound, descending. Output the labels ranked as instructed.
### Response P, R, Q
(P: 0.94, R: 0.31, Q: 0.13)
